In this section we review reported Ki values for a set of compounds.
# ASSAYED SYSTEM: PKC delta kinase (Homo sapiens, UniProt Q05655)
# Sequence (Q05655 whole entry): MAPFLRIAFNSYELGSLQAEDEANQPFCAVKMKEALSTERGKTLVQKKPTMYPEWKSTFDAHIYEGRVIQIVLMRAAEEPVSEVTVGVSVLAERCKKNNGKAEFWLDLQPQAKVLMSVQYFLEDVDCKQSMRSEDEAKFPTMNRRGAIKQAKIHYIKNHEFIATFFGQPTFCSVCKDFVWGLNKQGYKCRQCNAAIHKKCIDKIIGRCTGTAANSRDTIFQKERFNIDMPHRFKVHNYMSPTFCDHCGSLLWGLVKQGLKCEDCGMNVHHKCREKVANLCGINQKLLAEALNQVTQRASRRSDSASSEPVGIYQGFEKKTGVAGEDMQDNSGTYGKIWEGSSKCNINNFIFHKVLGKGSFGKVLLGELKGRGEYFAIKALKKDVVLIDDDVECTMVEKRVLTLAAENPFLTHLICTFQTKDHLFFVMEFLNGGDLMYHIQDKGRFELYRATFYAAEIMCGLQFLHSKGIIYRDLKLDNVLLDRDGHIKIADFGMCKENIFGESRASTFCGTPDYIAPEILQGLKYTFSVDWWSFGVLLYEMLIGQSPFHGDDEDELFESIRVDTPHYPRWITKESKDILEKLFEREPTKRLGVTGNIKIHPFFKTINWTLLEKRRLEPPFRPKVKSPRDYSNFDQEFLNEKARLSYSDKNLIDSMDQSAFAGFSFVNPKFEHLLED
# PROCEDURE DETAILS: PKC Delta coupled-enzyme kinase assay
# Assay type: biochemical
# MEASUREMENT SETUP: 46 nM PKC delta, 150 μM ATP, 30° C.; read-out: Ki PKC delta

CC(F)(F)c1ccc(N2CCNC(c3ccccc3)C2)nc1C(=O)c1cccnc1N (centres unmarked) : 50 to 500 nM

What value of measured Ki is listed for Nc1ncccc1C(=O)c1cccc(N2CCNC(c3cccc(C(F)(F)F)c3)C2)n1 (centres unmarked) ?
50 to 500 nM

Quick one: Ki of "Cc1ccc(-c2cnc(N)c(C(=O)c3cccc(N4CCCNCC4)n3)c2)cc1" ?
50 to 500 nM

###

Ki values, listed per item
# ASSAYED SYSTEM: UniProt:P17252

Nc1ncc(-c2c[nH]c3ccccc23)cc1C(=O)c1cccc(N2CCCNCC2)n1 : < 50 nM
CC(=O)c1ccc(N2CCN[C@@H](CC(C)C)C2)nc1C(=O)c1cccnc1N : > 2800 nM

Field: Ki (UniProt:P17252). Entry: "Nc1ncccc1C(=O)c1cncc(N2CCCNCC2)n1"
500 to 2800 nM

###

# ASSAYED SYSTEM: PKC delta kinase (Homo sapiens)
# PROCEDURE DETAILS: PKC Delta coupled-enzyme kinase assay
# Type: biochemical
# MEASUREMENT SETUP: 46 nM PKC delta, 150 μM ATP, 30° C.; read-out: Ki PKC delta
# Protocol: An assay buffer solution was prepared which consisted of 100 mM HEPES (pH 7.5), 10 mM MgCl2, 25 mM NaCl, 0.1 mM EDTA and 0.01% Brij. […] To 16 μL of this enzyme buffer, in a 384 well plate, was added 1 μL of VRT stock solution in DMSO. The mixture was allowed to equilibrate for 10 mins at 30° C. […] Ki values were calculated from initial rate data by non-linear regression using the Prism software package (Prism 4.0a, Graphpad Software, San Diego, Calif.).
pKi: −log10 of the molar value.
The molecules listed here are annotated with their pKi.

Completed entries (count: 4):
Nc1ncc(-c2csc3ccccc23)cc1C(=O)c1cccc(N2CCNC(c3ccccc3)C2)n1 (stereo not shown) : 5.55 to 6.30
Nc1ncc(-c2ccsc2)cc1C(=O)c1cccc(N2CCCNCC2)n1 : 6.30 to 7.30
CC(C)C[C@H](N)COc1ccc(C(F)(F)F)c(C(=O)c2cccnc2N)n1 : 6.30 to 7.30
Nc1ncccc1C(=O)c1nc(N2CCNC(c3ccccc3)C2)ccc1C#CC1CC1 (stereo not shown) : 5.55 to 6.30

# evaluate next
pKi of "Nc1ncc(Br)cc1C(=O)c1cncc(N2CCCNCC2)n1" on PKC delta kinase (Homo sapiens)?
6.30 to 7.30

###

# ASSAYED SYSTEM: PKC delta kinase (Homo sapiens, UniProt Q05655)
# PROCEDURE DETAILS: PKC Delta coupled-enzyme kinase assay
# Type: biochemical
# MEASUREMENT SETUP: 46 nM PKC delta, 150 μM ATP, 30° C.; read-out: Ki PKC delta
METRIC: Ki

Cc1cccc(-c2cnc(N)c(C(=O)c3cccc(N4CCCNCC4)n3)c2)c1 : 50 to 500 nM
CN(C)c1cccc(-c2cccc(C(=O)c3cccnc3N)n2)c1 : > 2800 nM

Form: Entry = "Nc1ncccc1C(=O)c1nc(N2CCNCC2)ccc1C1CC1" | System = PKC delta kinase (Homo sapiens, UniProt Q05655) | Ki = ____
500 to 2800 nM

Could you share what Ki was measured for "CC(C)C[C@H]1CN(c2ccc(CC(F)F)c(C(=O)c3cccnc3N)n2)CCN1" , tested on PKC delta kinase (Homo sapiens, UniProt Q05655)?
50 to 500 nM

Please provide the recorded Ki for "Nc1ncccc1C(=O)c1cccc(N2CCCN(C(=O)c3ccccc3)CC2)n1" , tested on PKC delta kinase (Homo sapiens, UniProt Q05655).
> 2800 nM

For PKC delta kinase (Homo sapiens, UniProt Q05655), provide Ki of "CN1CCCN(c2cncc(C(=O)c3cc(Br)cnc3N)n2)CC1" please.
50 to 500 nM

What value of Ki on PKC delta kinase (Homo sapiens, UniProt Q05655) does Nc1ncc(-c2ccc(CO)cc2)cc1C(=O)c1cccc(N2CCNC(c3ccccc3)C2)n1 (centres unmarked) have?
50 to 500 nM

Query for PKC delta kinase (Homo sapiens, UniProt Q05655): what Ki does the record show for "Nc1ncc(Cl)cc1C(=O)c1cccc(N2CCCNCC2)n1" ?
50 to 500 nM
